These data points were gathered from the supplement of paper PMC11451515.

Quick list: cell viability per entry.
# Test system: NOMO1
# TEST: cell viability relative to DMSO control; higher = less cytotoxic
# SETUP_CONDITIONS: RPMI 5 mM glucose + 10% dialyzed FBS; 48 h; 1.71 µM
PARAMETER: cell viability (%)

[[record]]
compound = "CCC[C@@H](C=O)NC(=O)[C@H](CC(C)C)NC(=O)[C@H](CC(C)C)NC(=O)OCc1ccccc1"
recorded_value = 93.1

[[record]]
compound = "CNC(=O)c1ccc(N2C(=S)N(c3ccc(C#N)c(C(F)(F)F)c3)C(=O)C2(C)C)cc1F"
recorded_value = 126

[[record]]
compound = "OC1=CC2=C(C(=O)\\C=C(/O2)C3=CC=CC=C3)C(=C1O)O"
recorded_value = 98.6

[[record]]
compound = "CC1(C)Cc2c(sc(NC(=S)NC(=O)c3ccccc3)c2C(=O)O)CO1"
recorded_value = 109

[[record]]
compound = "O=C(O)CSCC(=O)NC1CCSC1=O (stereo not drawn)"
recorded_value = 118

[[record]]
compound = "C[C@@H](NCc1cc2ccccc2[nH]1)c1cccc2ccccc12"
recorded_value = 93.7

[[record]]
compound = "CCCCCCCCOc1ccccc1C(=O)Nc1ccc(C(=O)OCC[N+](C)(CC)CC)cc1"
recorded_value = 84.4

[[record]]
compound = "CCCNCC(O)COc1ccccc1C(=O)CCc1ccccc1 (stereo not drawn)"
recorded_value = 121

[[record]]
compound = "O=C(C1CC1)N1CC[C@@H](Cn2c(-c3ccc(-c4ccc5occc5c4)cc3)nc3cnccc32)C1"
recorded_value = 114

[[record]]
compound = "CN(c1nccc(=O)[nH]1)C1CCN(c2nc3ccccc3n2Cc2ccc(F)cc2)CC1"
recorded_value = 121

[[record]]
compound = "Cn1cnc(-c2cc3nccc(Oc4ccc(NC(=S)NC(=O)Cc5ccccc5)cc4F)c3s2)c1"
recorded_value = 90

[[record]]
compound = "O=C1CCC[C@@H]2[C@H]3CCC[N+]4([O-])CCC[C@@H](CN12)[C@@H]34 (stereo partly drawn)"
recorded_value = 88.9

[[record]]
compound = "COc1cc(NC(=O)c2ccc(-c3ccc(Cl)cc3)o2)cc(OC)c1"
recorded_value = 94.9

[[record]]
compound = "Oc1cc2c(cc1O)C1c3ccc(O)c(O)c3OCC1(O)C2 (stereo not drawn)"
recorded_value = 110

[[record]]
compound = "O=[S+]([O-])(CCSSCC[S+](=O)([O-])[O][Na])[O][Na]"
recorded_value = 139

[[record]]
compound = "NCCCCCC(=O)O"
recorded_value = 87.8

[[record]]
compound = "C[N+](C)(C)CC(=O)O.[Cl-]"
recorded_value = 91.5

[[record]]
compound = "O=C(Nc1ccc([N+](=O)[O-])cc1Cl)c1cc(Cl)ccc1O"
recorded_value = 50.8

